MEASUREMENT_TARGET: Urokinase-type plasminogen activator [179-424,C299A,N323Q] (Human, UniProt P00749, C299A/N323Q)
Construct: 179-424
PROCEDURE_TEXT: Photometric_Method1
pKi: −log10 of the molar value.

# MOLECULE, RELATION_QUALIFIER, pKi
measured = [
    ("Nc1cc2ccccc2cn1", "<", 4.52),
    ("Nc1ccc2nc(N)ccc2c1", "<", 3.98),
    ("N=C(N)c1ccc2cc(C(=O)Nc3ccccc3)cc(-c3ncccn3)c2c1", "=", 5.11),
    ("C#CCN(C)C(=O)c1ccc2ccc(N)nc2c1", "<", 4.00),
    ("CC(C)CN(CC(C)C)C(=O)c1ccc2ccc(N)nc2c1", "<", 4.00),
    ("CC(C)C1c2cc(C3CC3c3cc(/C=C/C4CC4)c4cc(C(=N)N)ccc4c3)ccc2CCN1C (stereo unspecified)", "=", 8.05),
    ("CC(C)Oc1ccc2cc(C(=N)N)ccc2c1", "=", 5.14),
    ("COC(=O)Nc1cc(C(=O)Nc2ccc(CN)cc2)cc2ccc(C(=N)N)cc12", "=", 9.05),
    ("N=C(N)c1ccc2cc(/C=C/CCc3cccnc3)cc(Br)c2c1", "=", 5.51),
    ("CS(=O)(=O)Nc1cc(CCc2ccccc2)cc2ccc(C(=N)N)cc12", "=", 5.83),
    ("Nc1cnc2ccccc2n1", "<", 4.30),
    ("N=C(N)c1ccc2ccccc2c1", "=", 5.23),
    ("COc1ccc2ccc(C(=N)N)cc2c1-c1cnn(C(C)C)c1", "=", 5.35),
    ("C=CCNC(=O)Nc1cccc2ccc(N)nc12", "<", 5.00),
    ("COC(=O)Nc1cc(C(=O)Nc2ccccc2)cc2ccc(C(=N)N)cc12", "=", 7.74),
    ("COc1cc(NC(=O)c2ccc3cc(C(=N)N)ccc3c2)cc(OC(C)C)c1", "=", 7.48),
    ("CCOc1cc(OCC)c(OCC)cc1/C=C/c1cc(Br)c2cc(C(=N)N)ccc2c1", "=", 6.11),
    ("COC(=O)Nc1ccc2nc(N)ccc2c1", "<", 4.30),
    ("N#CC(CCOc1cccc2ccc(N)nc12)(c1ccccc1)c1ccccc1", "<", 4.40),
    ("CN1CCc2ccc(C3CC3c3ccc4cc(C(=N)N)ccc4c3)cc2C1c1cccnc1 (stereo unspecified)", "=", 5.90),
    ("N=C(N)c1ccc2cc(C(=O)Nc3ccc4c(c3)C(C3CCCCC3)=NCC4)ccc2c1", "=", 7.18),
    ("COC/C=C/c1cc(C2CC2c2ccc3c(c2)C(C(C)C)N(C)CC3)cc2ccc(C(=N)N)cc12 (stereo unspecified)", "=", 7.68),
    ("COc1cc2ccc(C(=N)N)cc2c(OC)c1OC", "=", 5.10),
    ("CS(=O)(=O)n1cc(-c2cc(C(=O)Nc3ccccc3)cc3ccc(C(=N)N)cc23)cn1", "=", 6.11),
    ("COc1cc(C2CC2c2ccc3c(c2)C(C(C)C)N(C)CC3)cc2ccc(C(=N)N)cc12 (stereo unspecified)", "=", 7.03),
    ("N=C(N)c1ccc2cc(NS(=O)(=O)c3ccccc3)ccc2c1", "=", 5.06),
]

---

MEASUREMENT_TARGET: Urokinase-type plasminogen activator [179-424,C299A,N323Q] (Human, UniProt P00749, C299A/N323Q)
Construct: 179-424
PROCEDURE_TEXT: Photometric_Method1
pKi: −log10 of the molar value.

# COMPOUND, RELATION_QUALIFIER, pKi
data = [
    ("CN1CCc2ccc(C3CC3c3ccc4cc(C(=N)N)ccc4c3)cc2C1C1CCC1 (centres undefined)", "=", 7.38),
    ("N=C(N)NC(=O)c1ccc(Cl)c(S(N)(=O)=O)c1", "<", 4.00),
    ("CN1CCc2ccc(/C=C/c3ccc4cc(C(=N)N)ccc4c3)cc2C1C1CCCCC1 (centres undefined)", "=", 6.65),
    ("CC(C)C1=NCCc2ccc(NC(=O)c3cc(Br)c4cc(C(=N)N)ccc4c3)cc21", "=", 7.80),
    ("CN(CC#N)C(=O)c1ccc2ccc(N)nc2c1", "<", 4.00),
    ("N=C(N)c1ccc2cc(C#Cc3cccc(OC4CCCC4)c3)ccc2c1", "=", 6.18),
    ("N=C(N)c1ccc2cc(C(=O)Nc3ccc4c(c3)C(c3ccccc3)=NCC4)ccc2c1", "=", 6.54),
    ("COC(=O)Nc1ccc2nc(C(=N)N)ccc2c1", "<", 4.30),
    ("N=C(N)NC(=O)c1nc(Cl)c(NCc2cc(Cl)cc(Cl)c2)nc1N", "=", 5.45),
]

The measured values listed here are drawn from BindingDB's records for doi:10.7270/Q24B305P.
